- Test system: NCI/ADR-RES ovarian
- METHOD_SUMMARY: NCI tumour cell line growth inhibition, 48 h
READOUT_TYPE: TGI (µM)

• CC(=O)Oc1ccc(/C(=C(\C)c2ccc(Cl)cc2)c2ccc(OCCN3CCCCC3)cc2)cc1 = 5.44
• O=C(Nc1ccccc1)c1cc(S(=O)(=O)Nc2nc3ccccc3o2)c(SCc2ccccc2)cc1Cl = 66.3
• CC(C)Cc1cc2c(cc1O)CCC1C2CC[C@@]2(C)C1CC[C@@H]2O (some centres not stated) = 20.9
• Cc1ccc(S(=O)c2sccc2C=O)cc1 (configuration not stated) = 67.2
• COC1OC(COC(=O)c2cc(O)c(O)c(O)c2)C(OC(=O)c2cc(O)c(O)c(O)c2)C(OC(=O)c2cc(O)c(O)c(O)c2)C1OC(=O)c1cc(O)c(O)c(O)c1 (configuration not stated) = 98.4
